Protocol Details: in vitro
Experimental Context: PAMPA, pH 7.8
Property Label: Papp at 5 h, 200 µM (×10⁻⁶ cm/s)

[
  {
    "Compound": "N[C@@H](Cc1ccc(O)c(O)c1)C(=O)NCCNC(=O)c1ccc(Cl)cn1 [L-dopa–lazabemide prodrug]",
    "Data Value": 0.0468
  }
]

I. N[C@@H](Cc1ccc(O)c(O)c1)C(=O)O
II. NCCNC(=O)c1ccc(Cl)cn1 [Lazabemide]
Enquiry: // which entry reports the smaller Papp at 5 h, 200 µM, I or II ? Respond with the label that goes with your answer.
Return: I

====

Protocol Details: physchem
Experimental Context: pH 6.4, LogD
Property Label: logD
Kindly provide the number alone.

Enquiry: Sample NCCNC(=O)c1ccc(Cl)cn1 [Lazabemide] — what was its logD?
Return: -1.18
